This section lists pIC50 readings for ERK5 (Homo sapiens, UniProt Q13164).
Entry type: numeric. Quantity: pIC50, the -log10 of concentration in molar units.

*Q* Data request, read-out pIC50, for COC12CC(c3nc4c(C5CCN(C(=O)c6ccc(OC(F)(F)F)cc6N)CC5)c(F)cnc4[nH]3)(C1)C2 [Example 428]
*A* 8.30

*Q* Data request, read-out pIC50, for COC12CC(c3nc4c(C5CCN(C(=O)c6ccc(OC(F)(F)F)cc6)CC5)c(F)cnc4[nH]3)(C1)C2 [Example 426]
*A* 8.00

---

# Target system: ERK5 (Homo sapiens)
# Assay explanation: biochemical
# Sequence (Q13164 55-347 limits assumed): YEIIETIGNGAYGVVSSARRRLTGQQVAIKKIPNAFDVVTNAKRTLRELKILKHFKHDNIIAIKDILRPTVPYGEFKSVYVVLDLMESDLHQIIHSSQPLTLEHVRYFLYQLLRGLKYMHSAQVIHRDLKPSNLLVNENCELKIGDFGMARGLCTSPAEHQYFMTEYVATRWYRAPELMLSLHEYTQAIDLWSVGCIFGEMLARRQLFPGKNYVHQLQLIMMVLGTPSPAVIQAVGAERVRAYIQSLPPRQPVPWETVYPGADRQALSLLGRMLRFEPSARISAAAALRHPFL
Where a name gives a salt, the structure may show the parent alone.
So I've got a bunch of compounds here, and I need their IC50 values.
State just the number; it will be interpreted in nM.

*Q* Data request, read-out IC50, for O=C(c1ccc(C(F)(F)F)[nH]c1=O)N1CCC(c2ccnc3[nH]c(C4CCOCC4)nc23)CC1 [Example 264]
*A* 98

*Q* Data request, read-out IC50, for Nc1cc(OC(F)(F)F)ccc1C(=O)N1CCC(c2c(F)cnc3[nH]c(C45CC(C(F)(F)F)(C4)C5)nc23)CC1 [Example 432]
*A* 3870

*Q* Data request, read-out IC50, for Nc1cc(S(F)(F)(F)(F)F)ccc1C(=O)N1CCC(c2c(F)cnc3[nH]c(C4CCCO4)nc23)CC1 (racemic) [Example 383]
*A* 385

*Q* Data request, read-out IC50, for O=C(c1ccc(S(F)(F)(F)(F)F)cc1)N1CCC(c2c(F)cnc3[nH]c(N4CCOCC4)nc23)CC1 [Example 449]
*A* 280

*Q* Data request, read-out IC50, for O=C(c1ccc(S(F)(F)(F)(F)F)cc1)N1CCC(c2c(F)cnc3[nH]c(C4CCN(C5CC5)CC4)nc23)CC1 [Example 431]
*A* 535

*Q* Data request, read-out IC50, for O=C(c1ccc(C(F)(F)F)c(=O)[nH]1)N1CCC(c2ccnc3[nH]c(C4CCOCC4)nc23)CC1 [Example 53, hydrochloride]
*A* 262

*Q* Data request, read-out IC50, for Nc1nc2ccccc2nc1C(=O)N1CCC(c2ccnc3[nH]c(C4CCOCC4)nc23)CC1 [Example 116]
*A* 16400

---

So I've got a bunch of compounds here, and I need their log10(IC50) values.
# Target system: ERK5 (Homo sapiens)
# Assay explanation: cell-based
# Sequence (Q13164 whole entry): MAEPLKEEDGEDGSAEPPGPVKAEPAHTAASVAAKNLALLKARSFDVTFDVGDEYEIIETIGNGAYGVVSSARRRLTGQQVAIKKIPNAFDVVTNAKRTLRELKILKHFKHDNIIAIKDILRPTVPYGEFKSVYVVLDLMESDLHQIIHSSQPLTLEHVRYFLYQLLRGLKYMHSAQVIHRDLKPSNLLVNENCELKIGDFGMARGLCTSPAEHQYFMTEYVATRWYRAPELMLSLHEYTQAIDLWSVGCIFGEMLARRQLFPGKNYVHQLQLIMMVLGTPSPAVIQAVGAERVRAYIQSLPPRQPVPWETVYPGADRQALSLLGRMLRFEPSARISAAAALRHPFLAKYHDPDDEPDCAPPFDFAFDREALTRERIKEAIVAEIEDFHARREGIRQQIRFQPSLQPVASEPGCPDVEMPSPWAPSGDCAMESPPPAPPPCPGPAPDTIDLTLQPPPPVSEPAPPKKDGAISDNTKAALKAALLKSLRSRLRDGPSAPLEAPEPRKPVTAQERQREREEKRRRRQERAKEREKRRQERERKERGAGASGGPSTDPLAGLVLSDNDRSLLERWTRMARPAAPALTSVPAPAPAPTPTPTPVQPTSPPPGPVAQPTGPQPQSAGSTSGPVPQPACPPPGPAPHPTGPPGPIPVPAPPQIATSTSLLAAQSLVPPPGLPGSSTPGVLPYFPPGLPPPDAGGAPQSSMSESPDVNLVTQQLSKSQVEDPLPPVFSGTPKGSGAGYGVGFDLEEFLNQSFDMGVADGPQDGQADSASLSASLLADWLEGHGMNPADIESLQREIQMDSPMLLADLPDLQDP
Structures can show the parent of a compound that is named as a salt.
// units: µM (pre-log); metric: IC50; scale: log10

*Q* Data request, read-out log10(IC50), for CO[C@H]1CC[C@H](c2nc3c(C4CCN(C(=O)c5ccc(OC(F)(F)F)cc5)CC4)ccnc3[nH]2)CC1 [Example 153, hydrochloride]
*A* -0.71

*Q* Data request, read-out log10(IC50), for O=C(c1ccc(S(F)(F)(F)(F)F)cc1)N1CCC(c2ccnc3[nH]c(C4CCOC4)nc23)CC1 (single isomer, unassigned)
*A* -0.55

*Q* Data request, read-out log10(IC50), for Nc1c(C(=O)N2CCC(c3ccnc4[nH]c(C5CCOCC5)nc34)CC2)cnn1-c1ccccc1
*A* 0.82

*Q* Data request, read-out log10(IC50), for CCn1c(=O)c(=O)[nH]c2cc(-c3nc4c(C5CCN(C(=O)c6ccc(OC(F)(F)F)cc6)CC5)ccnc4[nH]3)ccc21
*A* 0.51

*Q* Data request, read-out log10(IC50), for CN1CCC(c2nc3c(C4CCN(C(=O)c5ccc(OC(F)(F)F)cc5)CC4)ccnc3[nH]2)C1 (single isomer, unassigned) [Example 25]
*A* -0.75

*Q* Data request, read-out log10(IC50), for Cc1cc2ncc(C(=O)N3CCC(c4ccnc5[nH]c(C6CCOCC6)nc45)CC3)c(N)n2n1
*A* 0.90

*Q* Data request, read-out log10(IC50), for COC12CC(c3nc4c(C5CCN(C(=O)c6ccc(S(F)(F)(F)(F)F)cc6)CC5)ccnc4[nH]3)(C1)C2
*A* -1.01

*Q* Data request, read-out log10(IC50), for Nc1cc(OC(F)(F)F)ccc1C(=O)N1CCC(c2ccnc3[nH]c(C4CCN(CC(F)F)CC4)nc23)CC1
*A* -1.33

*Q* Data request, read-out log10(IC50), for Nc1cc(OC(F)(F)F)ccc1C(=O)N1CCC(c2ccnc3[nH]c(C4CNCC(F)(F)C4)nc23)CC1 (single isomer, unassigned)
*A* -0.58

*Q* Data request, read-out log10(IC50), for Nc1cc(OC(F)(F)F)ccc1C(=O)N1CCC(c2ccnc3[nH]c(C4CCOC4)nc23)CC1 (single isomer, unassigned) [Example 187]
*A* -1.39

*Q* Data request, read-out log10(IC50), for O=C(c1nn(-c2ccccc2C(F)(F)F)cc1O)N1CCC(c2ccnc3[nH]c(C4CCOCC4)nc23)CC1
*A* 0.50
